- Tested Target: T1, C-TRAF2 (residues 262 to 501 of human TRAF2) (human, UniProt Q12933 262-501)
- T1 construct: range 262-501; Expressed by baculovirus; Amine-coupled to a CM5 chip in the BIAcore experiments; also called C-terminal domain of TRAF2; C-TRAF2 (residues 262-501)
- T1 sequence: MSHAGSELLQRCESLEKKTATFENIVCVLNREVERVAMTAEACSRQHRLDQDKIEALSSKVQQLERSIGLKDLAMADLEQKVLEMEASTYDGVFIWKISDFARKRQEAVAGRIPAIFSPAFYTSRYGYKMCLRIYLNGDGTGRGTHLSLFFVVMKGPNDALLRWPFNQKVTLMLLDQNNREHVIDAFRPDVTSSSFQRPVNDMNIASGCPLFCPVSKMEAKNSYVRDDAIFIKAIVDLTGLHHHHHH
- Test Description: BIAcore competition; competitor N-TRADD
Ends that are not written are not given here.
Recorded Endpoint: IC50

Given item SNTAAPVQETLHG-OH (Synthesised by Fmoc solid-phase methods; printed with a free C-terminus (-OH); also called CD40 peptide; CD40-derived peptide) [13-mer peptide derived from CD40 (SNTAAPVQETLHG-OH)] , the value recorded as its IC50 is ~1 mM
